Data origin, for the record: patent US20240208997A1

Assignment: determine reported Ratio THP(cGAMP) IC50/THP(vir) IC50 for the given compounds.
# System: IFN induction in cGAMP-stimulated THP1 cells
# PROTOCOL NOTES: cGAMP stimulated counter cell assay in THP1-Dual cells (THP1(cGAMP) IC50)
# Type: cell-based, human
# STATED CONDITIONS: Table 1; selectivity for cGAS-inhibition
Give bare numbers.

Example entries begin here.
Query: Requested read-out: Ratio THP(cGAMP) IC50/THP(vir) IC50. Entry: Cc1cccc2c1nc1n2[C@H]2CCN(C[C@@H]2C)C(=O)CCCCCC(F)(F)c2nc(c3oc4ccccc4c3n2)N2C[C@H](C[C@H]2C(=O)O)O1 [Example 1.28]
Result: 267

Query: Requested read-out: Ratio THP(cGAMP) IC50/THP(vir) IC50. Entry: C[C@H]1CN2CC[C@@H]1n1c(nc3ccc(Cl)cc31)O[C@H]1C[C@@H](C(=O)O)N(C1)c1nc(nc3c1oc1ccccc13)C(F)(F)CCCCCC2=O [Example 1.13]
Result: 2251

Query: Requested read-out: Ratio THP(cGAMP) IC50/THP(vir) IC50. Entry: C[C@H]1CN2CC[C@@H]1n1c(nc3ccccc31)O[C@H]1C[C@@H](C(=O)O)N(C1)c1nc(nc3c1oc1ccccc13)CCCCCN(C)C2=O [Example 13.01]
Result: 15

Each compound below has a reported value. Please supply its Ratio THP(cGAMP) IC50/THP(vir) IC50.
1. Cc1cccc2c1nc1n2[C@@H]2CCN(C[C@H]2C)C(=O)CCCCCC(F)(F)c2nc(c3oc4ccccc4c3n2)N2C[C@H](C[C@H]2C(=O)O)O1 [Example 1.27]
2. C[C@H]1CN2CC[C@@H]1n1c(nc3cc(Cl)ccc31)O[C@H]1C[C@@H](C(=O)O)N(C1)c1nc(nc3c1oc1ccccc13)C(F)(F)CCCCCC2=O [Example 1.12]
3. C[C@H]1CN2CC[C@@H]1n1c(nc3ccccc31)O[C@H]1C[C@@H](C(=O)O)N(C1)c1nc(nc3c1oc1cc(Cl)ccc13)C(F)(F)CCCCCC2=O [Example 1.16]
4. C[C@H]1CN2CC[C@@H]1n1c(nc3cc(F)ccc31)O[C@H]1C[C@@H](C(=O)O)N(C1)c1nc(nc3c1oc1ccccc13)C(F)(F)CCCCC(F)(F)C2=O [Example 1.18]
5. C[C@H]1CN2CC[C@@H]1n1c(nc3ccccc31)O[C@H]1C[C@@H](C(=O)O)N(C1)c1nc(nc3c1oc1ccccc13)CCCC(C)(C)CCC2=O [Example 1.23]
6. C[C@@H]1CC(=O)N2CCC(CC2)n2c(nc3ccccc32)O[C@H]2C[C@@H](C(=O)O)N(C2)c2nc(nc3c2oc2ccccc23)CCCO1 [Example 7.01]

Result:
[33, 1620, 1134, 270, 51, 23]

Query: Requested read-out: Ratio THP(cGAMP) IC50/THP(vir) IC50. Entry: C[C@H]1CN2CC[C@@H]1n1c(nc3cc(Cl)ccc31)O[C@H]1C[C@@H](C(=O)O)N(C1)c1nc(nc3c1oc1cc(F)ccc13)CCCCOCC2=O [Example 1.09]
Result: 4305
